# target_system: Human Cytosolic PLA2 (Homo sapiens)
# Sequence (P47712 whole entry): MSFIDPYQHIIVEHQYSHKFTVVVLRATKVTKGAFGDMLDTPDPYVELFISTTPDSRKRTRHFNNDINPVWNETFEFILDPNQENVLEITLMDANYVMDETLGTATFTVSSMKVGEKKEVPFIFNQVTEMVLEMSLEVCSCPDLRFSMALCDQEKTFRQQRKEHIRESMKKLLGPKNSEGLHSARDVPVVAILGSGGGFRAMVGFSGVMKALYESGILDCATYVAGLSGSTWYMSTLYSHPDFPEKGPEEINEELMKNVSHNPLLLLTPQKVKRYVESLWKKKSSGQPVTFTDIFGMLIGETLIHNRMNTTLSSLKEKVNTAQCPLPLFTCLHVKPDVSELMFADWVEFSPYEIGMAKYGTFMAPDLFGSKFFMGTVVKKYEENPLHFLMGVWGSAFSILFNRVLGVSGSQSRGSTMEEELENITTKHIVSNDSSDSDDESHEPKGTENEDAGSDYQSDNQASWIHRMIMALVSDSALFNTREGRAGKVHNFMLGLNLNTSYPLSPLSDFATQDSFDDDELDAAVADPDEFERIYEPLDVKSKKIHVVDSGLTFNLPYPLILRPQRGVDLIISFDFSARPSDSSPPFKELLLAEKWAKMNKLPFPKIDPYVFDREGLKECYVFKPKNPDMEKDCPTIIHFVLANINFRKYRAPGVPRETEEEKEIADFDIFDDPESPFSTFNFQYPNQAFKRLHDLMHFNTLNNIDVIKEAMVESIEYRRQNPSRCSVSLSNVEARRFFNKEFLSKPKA
# experiment_summary: Inhibition of Cytosolic Phospholipase A2 (in vitro, [14C]PC/DG sonicated liposomes)
# experimental_context: 37° C., 15 minutes, pH 7.5, 1 mM calcium chloride
# Experimental: The biological activity of the compounds of Formula I was evaluated employing an in vitro assay measuring the ability of these compounds to inhibit the activity of cytosolic phospholipase A2. […] After mixing, 1.2 ml of heptane and 1 ml of water were added. […] After addition of 10 ml of a liquid scintillation cocktail (Ready Protein®, Beckman) radioactivity was counted using a Beckman liquid scintillation counter Model LS 7000. […]
pIC50: −log10 of the molar value.
measurement_type: pIC50

{"compound": "CCCc1c(OCCCOc2cc(O)c(-c3ccccc3)cc2CC)cccc1OC(C)C(=O)O (stereo not shown)", "measurement_type": "pIC50", "obs_value": 4.92}
{"compound": "CCCc1c(OCCCOc2cc(O)c(-c3ccc(F)cc3)cc2CC)ccc2c1OC(C(=O)O)CC2 (stereo not shown)", "measurement_type": "pIC50", "obs_value": 5.05}

a = CCc1cc(-c2ccccc2)c(O)cc1OCCCCCC(C)(C)c1nn[nH]n1
b = CCc1cc(-c2ccc(F)cc2)c(O)cc1OCCCOc1ccccc1CCC(=O)NS(C)(=O)=O
Please indicate which entry, a or b , has the lower recorded pIC50 value. Which one? Tell me its label. a
